# target: T1, O15-bH
# T1 chain: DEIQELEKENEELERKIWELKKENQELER
# protocol-summary: two-hybrid library CCNG1;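 further: natural log of median RNA to DNA barcode read ratio; higher means stronger binding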
metric-name: interaction score

I: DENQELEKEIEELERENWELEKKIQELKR [O14-bH]
II: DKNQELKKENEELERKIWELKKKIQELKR [O10-bH]
III: DEIQELEKENEELERKIWELKKENQELER [O15-bH]
IV: DEIQELEKKIEELKRKNWELKKKNQELKR [O12-bH]
Ascending by interaction score, please. Sort the labels as requested; that list is your answer. II, III, IV, I
(II: -0.726, III: 0.268, IV: 0.483, I: 1.43)

// data source = paper PMC10397247
